Parameter: ED50. Scope: all listed entries.
# Test system: Mus musculus
# PROCEDURE DETAILS: Anticonvulsant activity in DBA/2 mouse assessed as inhibition of audiogenic tonic seizures administered as ip, 30 mins prior to auditory stimulation measured for 60 secs
# Assay type: functional
# MEASUREMENT CONDITIONS: DBA/2, ip

MOL: O=C(CN1CCC(Cc2ccccc2)CC1)c1c[nH]c2cccc(O)c12
ED50 / µmol/kg: 13.7
--
MOL: COc1ccc2c(C(=O)C(=O)N3CCC(Cc4ccccc4)CC3)c[nH]c2c1
ED50 / µmol/kg: 4.68
--
MOL: O=C(C(=O)N1CCC(Cc2ccccc2)CC1)c1c[nH]c2cccc(O)c12
ED50 / µmol/kg: 28.9
--
MOL: O=C(CN1CCN(Cc2ccccc2)CC1)c1c[nH]c2ccc(O)cc12
ED50 / µmol/kg: 44.9
